# Study System: Recombinant Human Siglec-3/CD33 protein (His-CD33) (Homo sapiens (Human), UniProt P20138)
# Sequence (P20138 18-259): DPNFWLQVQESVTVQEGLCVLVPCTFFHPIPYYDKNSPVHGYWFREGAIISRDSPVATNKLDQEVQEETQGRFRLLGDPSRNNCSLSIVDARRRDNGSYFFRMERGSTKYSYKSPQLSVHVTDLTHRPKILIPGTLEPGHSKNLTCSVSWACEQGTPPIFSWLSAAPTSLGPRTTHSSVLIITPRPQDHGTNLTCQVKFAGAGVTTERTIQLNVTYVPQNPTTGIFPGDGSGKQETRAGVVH
# Assay Name: Differential scanning fluorimetry (DSF) thermal shift assay
# Type: binding
# Condition Summary: difference in thermal melt of CD33 protein (0.5 μM) with 50 μM compound
Listed compounds paired with reported DSF (dTmD)
Property Label: DSF (dTmD) (°C)

Compound	Units	Obs Value
CC(=O)N[C@H]1[C@H]([C@H](O)[C@H](O)CNC(=O)c2cc(C)c(O)c(C)c2)O[C@@](C[C@H]2COC[C@]3(CCN(C(=O)OC(C)(C)C)C3)N2)(C(=O)O)C[C@@H]1O	°C	8.9
CC(=O)N[C@H]1[C@H]2O[C@](C(=O)O)(C/C=C/c3cccc(c3)[C@@H](NC(=O)C3CCCOC3)CCCc3cc(cc(Cl)c3O)C(=O)NC[C@@H](O)[C@H]2O)C[C@@H]1O (stereo partly shown)	°C	0.7
Cc1ccc(CNC(=O)C2CCCOC2)cc1/C=C/C[C@]1(C(=O)O)C[C@H](O)[C@@H](NC(=O)Cn2cc(C3CCCCC3)nn2)[C@H]([C@H](O)[C@H](O)CNC(=O)c2cc(C)c(O)c(C)c2)O1 (stereo partly shown)	°C	2.2
Cc1cc(C(=O)NC[C@@H](O)[C@@H](O)[C@@H]2O[C@@](C/C=C/c3cccc(CNC(=O)C4CCCOC4)c3)(C(=O)O)C[C@H](O)[C@H]2NC(=O)Cn2cc(C3CCCCC3)nn2)cc(C)c1O (stereo partly shown) [A-260]	°C	4.2

###

The following compounds are listed with their measured DSF (dTmD) values.
# Study System: Recombinant Human Siglec-3/CD33 protein (His-CD33) (Homo sapiens (Human), UniProt P20138)
# Assay Name: Differential scanning fluorimetry (DSF) thermal shift assay
# Assay type: binding
# Condition Summary: thermal melt shift of 0.5 μM CD33 protein with 50 μM compound
# Protocol: In the DSF assay, as the temperature increases, the protein gets gradually unfolded, exposing hydrophobic regions in which a fluorescent dye binds causing the fluorescence signal to increase. […] Recombinant human CD33 protein (0.5 μM) was incubated under buffered conditions in the presence of SYPRO orange dye, a temperature gradient was applied and a thermogram was produced by monitoring the fluorescence. […]

Compound	DSF (dTmD)
CCc1cccc(C(=O)NC[C@@H](O)[C@@H](O)[C@@H]2O[C@@](CCN3CCOC[C@@]34CCN(C(=O)OC(C)(C)C)C4)(C(=O)O)C[C@H](O)[C@H]2NC(C)=O)c1	10.1
COC(=O)[C@@]1(CCN2CCOC[C@@]23CCN(C(=O)OC(C)(C)C)C3)C[C@H](O)[C@@H](NC(C)=O)[C@H]([C@H](O)[C@H](O)CNC(=O)c2cc(C)c(O)c(C)c2)O1	−0.3
CC(=O)N[C@H]1[C@H]([C@H](O)[C@H](O)CNC(=O)c2cn(C)nc2C)O[C@@](CCN2CCOC[C@@]23CCN(C(=O)OC(C)(C)C)C3)(C(=O)O)C[C@@H]1O	6.5
CC(=O)N[C@H]1[C@H]([C@H](O)[C@H](O)CNC(=O)c2cc(C)c(O)c(C)c2)O[C@@](CCN2CCOC[C@@]23CCN(C(=O)N(C)Cc2ccccc2)C3)(C(=O)O)C[C@@H]1O	6.3
CC(=O)N[C@H]1[C@H]([C@H](O)[C@H](O)CNC(=O)c2ccc3c(c2)N(C)C(=O)CO3)O[C@@](CCN2CCOC[C@@]23CCN(C(=O)OC(C)(C)C)C3)(C(=O)O)C[C@@H]1O	9.6
CC(=O)N[C@H]1[C@H]([C@H](O)[C@H](O)CNC(=O)c2cc(C)cc(C)c2)O[C@@](CCN2CCOC[C@@]23CCN(C(=O)OC(C)(C)C)C3)(C(=O)O)C[C@@H]1O	10.1
CC(=O)N[C@H]1[C@H]([C@H](O)[C@H](O)CNC(=O)c2ccc3[nH]ccc3c2)O[C@@](CCN2CCOC[C@@]23CCN(C(=O)OC(C)(C)C)C3)(C(=O)O)C[C@@H]1O	15.0
CC(=O)N[C@H]1[C@H]([C@H](O)[C@H](O)CNC(=O)c2c[nH]c(C)c2)O[C@@](CCN2CCOC[C@@]23CCN(C(=O)OC(C)(C)C)C3)(C(=O)O)C[C@@H]1O	11.1
CC(=O)N[C@H]1[C@H]([C@H](O)[C@H](O)CNC(=O)c2cc(C)c(O)c(C)c2)O[C@@](CCN2CCOC[C@@]23CCN(C(=O)C2(C(F)(F)F)CCCCC2)C3)(C(=O)O)C[C@@H]1O	7.5
CC(=O)N[C@H]1[C@H]([C@H](O)[C@H](O)CNC(=O)c2cccc(N(C)C)c2)O[C@@](CCN2CCOC[C@@]23CCN(C(=O)OC(C)(C)C)C3)(C(=O)O)C[C@@H]1O	10.3
CC(=O)N[C@H]1[C@H]([C@H](O)[C@H](O)CNC(=O)c2cc(C)c(O)c(C)c2)O[C@@](CCN2CCOC[C@@]23CCN(C(=O)N2CCCC2)C3)(C(=O)O)C[C@@H]1O	7.2
CC(=O)N[C@H]1[C@H]([C@H](O)[C@H](O)CNC(=O)c2cc(C)c(O)c(C)c2)O[C@@](CCNC2(C)CCN(C(=O)OC(C)(C)C)C2)(C(=O)O)C[C@@H]1O (stereo partly shown)	9.2
CC(=O)N[C@H]1[C@H]([C@H](O)[C@H](O)CNC(=O)c2cc(C)c(O)c(C)c2)O[C@@](CCN2CCOC[C@@]23CCN(C(=O)C2CC4(C2)CC(F)(F)C4)C3)(C(=O)O)C[C@@H]1O	8.3

Data origin: patent US20250313574A1
